Hi there, I'd appreciate the recorded pIC50 for every entry that follows.
# tgt: P2X3 (UniProt P56373)
# Sequence (P56373 1-397): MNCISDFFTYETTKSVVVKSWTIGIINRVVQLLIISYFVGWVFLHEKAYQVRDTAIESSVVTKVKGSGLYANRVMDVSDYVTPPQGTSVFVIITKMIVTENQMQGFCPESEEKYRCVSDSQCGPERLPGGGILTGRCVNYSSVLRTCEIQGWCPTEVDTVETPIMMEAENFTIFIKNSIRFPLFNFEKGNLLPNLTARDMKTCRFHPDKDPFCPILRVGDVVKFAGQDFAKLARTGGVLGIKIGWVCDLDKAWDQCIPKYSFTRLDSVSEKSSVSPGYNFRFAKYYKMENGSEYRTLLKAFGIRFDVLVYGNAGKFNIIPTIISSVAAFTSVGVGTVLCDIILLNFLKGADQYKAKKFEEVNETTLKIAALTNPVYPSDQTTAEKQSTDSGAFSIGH
# test_protocol: P2X3 FLIPR intracellular calcium assay
# measurement_conditions: agonist at EC75, species (human or rat) not given
pIC50: −log10 of the molar value.

Query string: Query the reported pIC50 for P2X3 (UniProt P56373); item: Cc1ncc(CNC(=O)c2cc(-n3nncc3C3CCC3)c3ncc(-c4ccc(C)s4)n3c2)cn1 [Example 49]
Result string: < 5.00

Query string: Check Cc1cnc(-c2cnc3c(-n4nncc4C(F)F)cc(C(=O)N[C@@H](C)c4nnc[nH]4)cn23)s1 [Example 53] too.
Result string: 7.00 to 9.00

Query string: Check Cc1ccc(-c2cnc3c(-c4c(C)n[nH]c4C)cc(C(=O)N[C@@H](C)c4nnc[nH]4)cn23)s1 [Example 110] too.
Result string: 7.00 to 9.00
